meta.source: patent US20250280861A1

So I've got a bunch of compounds here, and I need their pEC50 values.
Target: hT1R2/T1R3 taste receptor (Homo sapiens, UniProt Q7RTX0+Q8TE23)
Sequence (Q8TE23 20-839): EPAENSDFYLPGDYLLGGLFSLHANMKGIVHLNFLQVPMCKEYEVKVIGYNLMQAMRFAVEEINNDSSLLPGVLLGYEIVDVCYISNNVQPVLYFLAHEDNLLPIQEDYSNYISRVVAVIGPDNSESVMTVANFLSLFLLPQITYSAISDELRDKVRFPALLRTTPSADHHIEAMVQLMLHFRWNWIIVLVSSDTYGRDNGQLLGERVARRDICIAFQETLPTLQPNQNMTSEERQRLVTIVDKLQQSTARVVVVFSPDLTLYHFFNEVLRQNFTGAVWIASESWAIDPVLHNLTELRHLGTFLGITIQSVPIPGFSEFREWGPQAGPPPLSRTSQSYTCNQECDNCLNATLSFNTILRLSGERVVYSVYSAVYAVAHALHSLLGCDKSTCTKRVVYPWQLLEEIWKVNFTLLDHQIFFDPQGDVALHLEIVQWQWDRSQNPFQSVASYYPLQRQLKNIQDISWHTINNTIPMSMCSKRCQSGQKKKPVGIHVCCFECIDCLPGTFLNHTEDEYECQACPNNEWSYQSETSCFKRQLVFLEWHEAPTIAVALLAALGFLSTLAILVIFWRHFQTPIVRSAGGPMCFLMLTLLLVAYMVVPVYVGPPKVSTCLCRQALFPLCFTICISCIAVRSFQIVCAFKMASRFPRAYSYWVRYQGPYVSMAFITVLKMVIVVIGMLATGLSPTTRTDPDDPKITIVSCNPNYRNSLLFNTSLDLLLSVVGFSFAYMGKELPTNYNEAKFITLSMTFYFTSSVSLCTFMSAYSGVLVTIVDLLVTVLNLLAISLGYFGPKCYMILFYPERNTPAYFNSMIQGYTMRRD
Sequence (Q7RTX0 21-852): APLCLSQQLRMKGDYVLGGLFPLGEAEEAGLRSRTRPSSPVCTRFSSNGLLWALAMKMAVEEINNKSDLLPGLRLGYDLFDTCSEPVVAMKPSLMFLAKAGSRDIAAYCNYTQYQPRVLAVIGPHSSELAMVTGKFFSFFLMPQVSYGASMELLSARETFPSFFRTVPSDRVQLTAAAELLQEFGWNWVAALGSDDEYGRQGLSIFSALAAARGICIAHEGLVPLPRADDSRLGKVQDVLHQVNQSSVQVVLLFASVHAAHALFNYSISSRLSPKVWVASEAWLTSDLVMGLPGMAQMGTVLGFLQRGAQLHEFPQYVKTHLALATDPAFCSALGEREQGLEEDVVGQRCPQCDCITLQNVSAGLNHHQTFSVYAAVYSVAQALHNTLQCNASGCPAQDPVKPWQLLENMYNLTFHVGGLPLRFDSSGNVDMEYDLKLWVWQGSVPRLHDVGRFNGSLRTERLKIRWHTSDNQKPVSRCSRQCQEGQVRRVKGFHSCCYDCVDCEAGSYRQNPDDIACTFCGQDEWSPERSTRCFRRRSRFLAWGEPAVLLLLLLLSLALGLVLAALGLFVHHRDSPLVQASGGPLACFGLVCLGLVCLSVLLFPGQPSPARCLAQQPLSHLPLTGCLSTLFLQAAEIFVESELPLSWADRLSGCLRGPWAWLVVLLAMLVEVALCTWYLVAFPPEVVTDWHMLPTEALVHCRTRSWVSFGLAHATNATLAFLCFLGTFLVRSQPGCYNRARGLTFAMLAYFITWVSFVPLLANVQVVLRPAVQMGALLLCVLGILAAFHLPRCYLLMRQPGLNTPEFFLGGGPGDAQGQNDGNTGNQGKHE
Test: agonist activity against the hT1R2/T1R3 taste receptor (sweet receptor based assay)
Type: cell-based
Settings: agonist activity, hT1R2/T1R3; read-out: Sweet EC50
Method: Compounds described in this application show moderate to potent agonist effect on the sweet receptor based assay. Potencies (EC50 values, e.g. see Tables 1-3) for agonist activity were measured against the hT1R2/T1R3 taste receptor. FIG. 1 exemplifies the data generated during the screening to determine EC50 values.
pEC50: −log10 of the molar value.

Request: // map COCCNC(=O)C(C)(C)N1CCN(c2cccc(C)c2C)CC1 to recorded pEC50 (system: hT1R2/T1R3 taste receptor (Homo sapiens, UniProt Q7RTX0+Q8TE23))
Result: < 5.00

Request: Which pEC50 is reported with hT1R2/T1R3 taste receptor (Homo sapiens, UniProt Q7RTX0+Q8TE23) for this entry: COCc1ccccc1N1CCN(C(C)(C)C(=O)NCC(C)C)CC1 ?
Result: 5.17

Request: Could you share what pEC50 was measured for Cc1cccc(N2CCN(C(C)(C)C(=O)NCCc3ccccc3)CC2)c1C , tested on hT1R2/T1R3 taste receptor (Homo sapiens, UniProt Q7RTX0+Q8TE23)?
Result: < 5.00

Request: # returns recorded pEC50 (system: hT1R2/T1R3 taste receptor (Homo sapiens, UniProt Q7RTX0+Q8TE23)) for Cc1ccncc1C1=CCN(C(C)(C)C(=O)NCC(C)C)CC1
Result: < 5.00

Request: What is its pEC50 for hT1R2/T1R3 taste receptor (Homo sapiens, UniProt Q7RTX0+Q8TE23)? Entry: CC(C)CNC(=O)C1(N2CCC(c3ccccc3)CC2)COC1
Result: 5.32

Request: Lab note: need pEC50 for Cc1cccc(C)c1N1CCN(C(C)(C)C(=O)NCC(C)C)CC1 on hT1R2/T1R3 taste receptor (Homo sapiens, UniProt Q7RTX0+Q8TE23), anyone have it?
Result: < 5.00

Request: // fetch hT1R2/T1R3 taste receptor (Homo sapiens, UniProt Q7RTX0+Q8TE23) pEC50 for Cc1ccncc1C1CCN(C(C)(C)C(=O)NCC(C)C)CC1
Result: < 5.00

Request: pEC50 of CC(C)CNC(=O)C(C)(C)N1CCN(c2cc(F)ccc2F)CC1 on hT1R2/T1R3 taste receptor (Homo sapiens, UniProt Q7RTX0+Q8TE23)?
Result: < 5.00

Request: I'm curious: which pEC50 was measured for COCc1cccc(C2=CCN(C(COC)C(=O)NCC(C)C)CC2)c1F (stereo not drawn) tested on hT1R2/T1R3 taste receptor (Homo sapiens, UniProt Q7RTX0+Q8TE23)?
Result: 5.85

Request: GET /values?readout=pEC50&system=hT1R2/T1R3 taste receptor (Homo sapiens, UniProt Q7RTX0+Q8TE23)&item= CC(C)CNC(=O)C(C)(C)N1CCC(O)(c2ccccc2)CC1
Result: < 5.00

Request: Can you look up pEC50 on hT1R2/T1R3 taste receptor (Homo sapiens, UniProt Q7RTX0+Q8TE23) for CC(C)CNC(=O)C(C)(C)N1CC=C(c2cncc(C#N)c2)CC1 ?
Result: < 5.00

Request: Which measured pEC50 belongs to Cc1cccc(C2CCN(C(C)(C)C(=O)NCC(C)C)CC2)c1F , tested on hT1R2/T1R3 taste receptor (Homo sapiens, UniProt Q7RTX0+Q8TE23)?
Result: 6.05

Request: Form field - read-out: pEC50; system: hT1R2/T1R3 taste receptor (Homo sapiens, UniProt Q7RTX0+Q8TE23); submitted item: CC(C)CNC(=O)C(C)(C)N1CC=C(c2ccccc2)CC1
Result: 5.48

Request: What value of pEC50 on hT1R2/T1R3 taste receptor (Homo sapiens, UniProt Q7RTX0+Q8TE23) does CC(C)CNC(=O)C(C)(C)N1CCN(c2cccc(F)c2F)CC1 have?
Result: 5.80

Request: Any idea what pEC50 came out for CC(C)CNC(=O)C(C)(C)N1CCC(c2ccccc2C(=O)N(C)C)CC1 on hT1R2/T1R3 taste receptor (Homo sapiens, UniProt Q7RTX0+Q8TE23)?
Result: < 5.00

Request: Quick check: pEC50 on hT1R2/T1R3 taste receptor (Homo sapiens, UniProt Q7RTX0+Q8TE23), item CC(C)CNC(=O)C(C)(C)N1CC=C(c2cccc(F)c2)CC1 ?
Result: 5.52

Request: Find pEC50 (hT1R2/T1R3 taste receptor (Homo sapiens, UniProt Q7RTX0+Q8TE23)) for the entry CC(C)CNC(=O)C(C)(C)N1CC=C(c2cccc(CN(C)C)c2)CC1
Result: < 5.00

Request: Report pEC50 for CCC(C)(C)NC(=O)C(C)(C)N1CCN(c2cccc(C)c2C)CC1 tested on hT1R2/T1R3 taste receptor (Homo sapiens, UniProt Q7RTX0+Q8TE23).
Result: < 5.00

###

Biological target: hT1R2/T1R3 taste receptor (Homo sapiens, UniProt Q7RTX0+Q8TE23)
Assay: agonist activity against the hT1R2/T1R3 taste receptor (sweet receptor based assay)
Assay type: cell-based
Conditions: agonist activity, hT1R2/T1R3; read-out: Sweet EC50
Assign pEC50 to each entry below.
On this scale, pEC50 is minus log10 of a concentration expressed in M (mol/L).

Request: Return reported pEC50; argument: CC(C)CNC(=O)C(C)(C)N1CCC(c2ccccc2F)CC1 [Compound 91]
Result: 6.40

Request: Quick one: pEC50 of CCCNC(=O)C(C)(C)N1CCN(c2cccc(C)c2C)CC1 [Compound 9] ?
Result: 5.38

Request: # get_value(readout='pEC50', item= CC(C)(C(=O)NC1CC1)N1CCC(c2ccccc2)CC1 [Compound 82] )
Result: 4.98

Request: For the compound shown here, CC(C)CNC(=O)C(C)(C)N1CCC(c2cccc(F)c2)CC1 [Compound 96] , give the reported pEC50.
Result: 6.22

Request: What value of pEC50 has been reported for the following compound? Cc1ccccc1N1CCN(C(C)(C)C(=O)NCC(C)C)CC1 [Compound 46]
Result: 5.37

Request: Would you kindly share the measured pEC50 for COCc1cccc(C2CCN(C(C)(C)C(=O)NCC(C)C)CC2)c1 [Compound 111] ?
Result: 5.51

Request: Value lookup for pEC50; key = CC(C)CNC(=O)C(C)(C)N1CCCC(c2ccccc2)CC1 (stereo not shown) [Compound 117]
Result: 4.96

Request: Which pEC50 is listed for CC(C)CNC(=O)C(C)(C)N1CCC2(CC1)COc1ccccc12 [Compound 122] ?
Result: 5.60
